Molecular target: T1, HLA-DP DPB1*0401 (human)
T1 chain 1: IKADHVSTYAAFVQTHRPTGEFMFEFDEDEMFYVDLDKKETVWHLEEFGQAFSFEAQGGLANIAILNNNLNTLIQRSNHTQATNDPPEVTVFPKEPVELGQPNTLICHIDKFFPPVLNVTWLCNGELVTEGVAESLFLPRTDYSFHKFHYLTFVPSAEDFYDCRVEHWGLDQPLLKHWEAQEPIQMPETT
T1 chain 2: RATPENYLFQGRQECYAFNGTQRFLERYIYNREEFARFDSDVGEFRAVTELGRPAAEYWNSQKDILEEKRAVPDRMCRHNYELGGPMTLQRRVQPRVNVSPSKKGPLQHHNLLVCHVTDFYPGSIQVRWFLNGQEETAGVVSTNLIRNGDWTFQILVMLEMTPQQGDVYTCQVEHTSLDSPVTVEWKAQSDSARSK
Assay: inhibition of radiolabeled peptide binding to purified HLA-DP
Here the recorded IC50 is given for each entry.
measuredQuantity: IC50 (µM)

| binder | valueUnits | testValue |
| --- | --- | --- |
| AFMLAWNYGVPRVMS [Der p 4 (321-335) peptide 3324.0977] | µM | 5.16 |
| GGSILKISNKYHTKG [Bet v 1 (111-125) peptide 3324.0352] | µM | 10.5 |
| GGSILKISNKFHTKG [Aln g 1 (111-125) peptide 3324.0007] | µM | 18.5 |
| FSGVAATESAYLAYR [Der f 1 (136-150) peptide 3324.0666] | µM | 1.44 |
